SYSTEM TESTED: Human M4 (Homo sapiens, UniProt P08173)
Construct: expressed in transfected cells
Sequence (P08173 1-479): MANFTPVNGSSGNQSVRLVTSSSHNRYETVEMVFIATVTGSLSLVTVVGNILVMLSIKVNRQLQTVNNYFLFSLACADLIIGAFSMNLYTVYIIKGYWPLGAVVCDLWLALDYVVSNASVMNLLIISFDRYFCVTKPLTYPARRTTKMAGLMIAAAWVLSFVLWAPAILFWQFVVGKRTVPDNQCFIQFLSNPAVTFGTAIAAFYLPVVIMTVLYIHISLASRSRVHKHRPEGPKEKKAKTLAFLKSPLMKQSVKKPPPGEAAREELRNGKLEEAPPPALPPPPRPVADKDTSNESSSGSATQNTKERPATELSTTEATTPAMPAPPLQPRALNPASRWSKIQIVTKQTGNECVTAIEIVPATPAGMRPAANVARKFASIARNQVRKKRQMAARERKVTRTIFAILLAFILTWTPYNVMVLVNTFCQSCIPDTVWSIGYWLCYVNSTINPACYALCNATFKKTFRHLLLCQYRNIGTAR
ASSAY INFO: mAChR M4 cell-based functional assay (calcium flux, PAM mode)
CONDITION LABEL: CHO-K1, % ACh maximum at 30 μM; hM4-Gqi5 CHO-K1 cells
Label 1 when Emax at 30 µM is at or above 90%; otherwise label -1.

COMPOUND: Cc1ccc(OC2CCN(c3nn4c(=O)ccnc4c(C)c3C)CC2)cc1 [Compound 77]
SYSTEM TESTED: Human M4 (Homo sapiens, UniProt P08173)
CLASS ASSIGNMENT: 1

COMPOUND: Cc1ccc(OC2CCN(c3nn4c(=O)ccnc4cc3C)CC2)cc1F [Compound 88]
SYSTEM TESTED: Human M4 (Homo sapiens, UniProt P08173)
CLASS ASSIGNMENT: -1

COMPOUND: [2H]C1([2H])Oc2ccc(O[C@@H]3CCN(c4nn5c(=O)cc(COC)nc5c(C)c4C)C[C@H]3F)cc2OC1([2H])[2H] [Compound 124]
SYSTEM TESTED: Human M4 (Homo sapiens, UniProt P08173)
CLASS ASSIGNMENT: 1

COMPOUND: [2H]C1(Oc2ccc3c(c2)OCCCO3)CCN(c2nn3c(=O)cc(C(F)(F)F)nc3cc2C)CC1 [Compound 64]
SYSTEM TESTED: Human M4 (Homo sapiens, UniProt P08173)
CLASS ASSIGNMENT: 1

COMPOUND: [2H]C1([2H])Oc2ccc(OC3CCN(c4nn5c(=O)ccnc5c(COC)c4C)CC3)cc2OC1([2H])[2H] [Compound 19]
SYSTEM TESTED: Human M4 (Homo sapiens, UniProt P08173)
CLASS ASSIGNMENT: -1

COMPOUND: Cc1c(N2CCC(Oc3ccc(C(F)(F)F)cc3)CC2)nn2c(=O)ccnc2c1C [Compound 80]
SYSTEM TESTED: Human M4 (Homo sapiens, UniProt P08173)
CLASS ASSIGNMENT: -1

COMPOUND: Cc1ccc(OC2CCN(c3nn4c(=O)ccnc4cc3C)CC2)cn1 [Compound 24]
SYSTEM TESTED: Human M4 (Homo sapiens, UniProt P08173)
CLASS ASSIGNMENT: -1

COMPOUND: [2H]C1([2H])Oc2ccc(OC3CCN(c4nn5c(=O)cc(C)nc5cc4C)CC3)cc2OC1([2H])[2H] [Compound 3]
SYSTEM TESTED: Human M4 (Homo sapiens, UniProt P08173)
CLASS ASSIGNMENT: -1

====

SYSTEM TESTED: Human M4 (Homo sapiens, UniProt P08173)
Construct: expressed in transfected cells
ASSAY INFO: mAChR M4 cell-based functional assay (calcium flux, PAM mode)
CONDITION LABEL: CHO-K1, % ACh maximum at 30 μM; hM4-Gqi5 CHO-K1 cells

MOLECULE: Cc1c(N2CCC(Oc3ccc4c(c3)OCCO4)CC2)nn2c(=O)ccnc2c1C
SYSTEM TESTED: Human M4 (Homo sapiens, UniProt P08173)
Emax at 30 µM [%]: 95
--
MOLECULE: Cc1cc2nccc(=O)n2nc1N1CC[C@H](Oc2cc(F)c3c(c2)OCCO3)C[C@H]1C
SYSTEM TESTED: Human M4 (Homo sapiens, UniProt P08173)
Emax at 30 µM [%]: 119
--
MOLECULE: Cc1ccc(OC2CCN(c3nn4c(=O)ccnc4c(C)c3C)CC2)cn1
SYSTEM TESTED: Human M4 (Homo sapiens, UniProt P08173)
Emax at 30 µM [%]: 101
--
MOLECULE: Cc1cc(=O)n2nc(N3CCC(Oc4ccc5c(c4)C(=O)NCC5)CC3)c(C)cc2n1
SYSTEM TESTED: Human M4 (Homo sapiens, UniProt P08173)
Emax at 30 µM [%]: 74
--
MOLECULE: Cc1c(N2CCC(Oc3ccc(C(F)(F)F)cc3)CC2)nn2c(=O)cc(C(F)F)nc2c1C
SYSTEM TESTED: Human M4 (Homo sapiens, UniProt P08173)
Emax at 30 µM [%]: 73
--
MOLECULE: [2H]C1([2H])Oc2ccc(OC3CCN(c4nn5c(=O)c(Cl)cnc5cc4C)CC3)cc2OC1([2H])[2H]
SYSTEM TESTED: Human M4 (Homo sapiens, UniProt P08173)
Emax at 30 µM [%]: 91
--
MOLECULE: [2H]C1([2H])Oc2ccc(O[C@H]3CCN(c4nn5c(=O)c(F)c(C)nc5cc4C)C[C@@H]3F)cc2OC1([2H])[2H]
SYSTEM TESTED: Human M4 (Homo sapiens, UniProt P08173)
Emax at 30 µM [%]: 107
--
MOLECULE: [2H]C1([2H])Oc2ccc(O[C@@H]3CCN(c4nn5c(=O)cc(C)nc5cc4C)C[C@H]3F)cc2OC1([2H])[2H]
SYSTEM TESTED: Human M4 (Homo sapiens, UniProt P08173)
Emax at 30 µM [%]: 94
--
MOLECULE: [2H]C1(Oc2ccc3c(c2)OCCO3)CCN(c2nn3c(=O)cc(C(F)(F)F)nc3cc2C)CC1
SYSTEM TESTED: Human M4 (Homo sapiens, UniProt P08173)
Emax at 30 µM [%]: 93
--
MOLECULE: [2H]C1([2H])Oc2ccc(OC3CCN(c4nn5c(=O)cc(C(F)(F)F)nc5cc4C)CC3)cc2OC1([2H])[2H]
SYSTEM TESTED: Human M4 (Homo sapiens, UniProt P08173)
Emax at 30 µM [%]: 91
--
MOLECULE: Cc1cc2nc(C)c(F)c(=O)n2nc1N1CC[C@H](Oc2ccc3c(c2)OCCO3)[C@@H](F)C1
SYSTEM TESTED: Human M4 (Homo sapiens, UniProt P08173)
Emax at 30 µM [%]: 105
--
MOLECULE: [2H]C1([2H])Oc2ccc(OC3CCN(c4nn5c(=O)c(Cl)c(C)nc5cc4C)CC3)cc2OC1([2H])[2H]
SYSTEM TESTED: Human M4 (Homo sapiens, UniProt P08173)
Emax at 30 µM [%]: 91
--
MOLECULE: Cc1ccc(OC2CCN(c3nn4c(=O)cc(C(F)F)nc4c(C)c3C)CC2)cn1
SYSTEM TESTED: Human M4 (Homo sapiens, UniProt P08173)
Emax at 30 µM [%]: 95
--
MOLECULE: Cc1cc2nccc(=O)n2nc1N1CC[C@@H](Oc2ccc3c(c2)OCCO3)C[C@H]1C [Compound 116]
SYSTEM TESTED: Human M4 (Homo sapiens, UniProt P08173)
Emax at 30 µM [%]: 71
--
MOLECULE: [2H]C1(Oc2ccc3c(c2)OC([2H])([2H])C([2H])([2H])O3)CCN(c2nn3c(=O)ccnc3cc2C)CC1
SYSTEM TESTED: Human M4 (Homo sapiens, UniProt P08173)
Emax at 30 µM [%]: 111
--
MOLECULE: Cc1c(N2CCC(Oc3ccc4c(c3)OCCO4)CC2)nn2c(=O)cc(C(C)C)nc2c1C
SYSTEM TESTED: Human M4 (Homo sapiens, UniProt P08173)
Emax at 30 µM [%]: 103
--
MOLECULE: Cc1cc(=O)n2nc(N3CC[C@H](Oc4ccc5c(c4)OCCO5)[C@H](F)C3)c(C)cc2n1
SYSTEM TESTED: Human M4 (Homo sapiens, UniProt P08173)
Emax at 30 µM [%]: 79
--
MOLECULE: Cc1cc2nccc(=O)n2nc1N1CC[C@H](Oc2ccc3c(c2)OCCO3)C[C@H]1C (stereo in doubt) [Compound 107]
SYSTEM TESTED: Human M4 (Homo sapiens, UniProt P08173)
Emax at 30 µM [%]: 55
--
MOLECULE: [2H]C1(Oc2ccc3c(c2)OCO3)CCN(c2nn3c(=O)cc(C(F)(F)F)nc3cc2C)CC1
SYSTEM TESTED: Human M4 (Homo sapiens, UniProt P08173)
Emax at 30 µM [%]: 102
--
MOLECULE: [2H]C1([2H])Oc2ccc(O[C@H]3CCN(c4nn5c(=O)ccnc5cc4C)C[C@H]3F)cc2OC1([2H])[2H]
SYSTEM TESTED: Human M4 (Homo sapiens, UniProt P08173)
Emax at 30 µM [%]: 108
--
MOLECULE: Cc1cc2nccc(=O)n2nc1N1CC[C@@H](Oc2ccc3c(c2)OCCO3)C[C@H]1C (stereo in doubt) [Compound 106]
SYSTEM TESTED: Human M4 (Homo sapiens, UniProt P08173)
Emax at 30 µM [%]: 81

Cited source: patent US11884676B2
